In this section we review reported remaining at 2 h values for a set of compounds.
Assay: in vitro
Format: in vitro ADME
Details: rat, lung cytosol
Please respond with the number in % and leave the unit unwritten.

Consider the following illustrative entries.
CCOC(=O)[C@@]1(OC(=O)CCl)CC[C@H]2[C@@H]3CCC4=CC(=O)C=C[C@]4(C)[C@H]3[C@@H](O)C[C@@]21C [Compound R] :: 30
COC(=O)[C@@]1(OC(=O)C(Cl)Cl)CC[C@H]2[C@@H]3CCC4=CC(=O)C=C[C@]4(C)[C@H]3[C@@H](O)C[C@@]21C [Compound A] :: 75
C[C@]12C=CC(=O)C=C1CC[C@@H]1[C@@H]2[C@@H](O)C[C@@]2(C)[C@H]1CC[C@]2(OC(=O)C(Cl)Cl)C(=O)OCCl [Compound D] :: 70

Continue with the compound presented below.
Supply recorded remaining at 2 h for CCOC(=O)[C@@]1(OC(=O)C(Cl)Cl)CC[C@H]2[C@@H]3CCC4=CC(=O)C=C[C@]4(C)[C@H]3[C@@H](O)C[C@@]21C [Compound B] here.
75

====

System: forearms of a human volunteer
Assay: Further human vasoconstriction testing, Method 1; note: key: 0: normal skin; 1: slight pallor of indistinct outline; 2: pallor with at least two corners outlined; 3: even pallor with a clear outline of the application sites; 4: very intense pallor
Format: in vivo
Details: 3 Hours, 0.05 mM
In this section we review reported Vasoconstriction activity values for a set of compounds.
Write no unit; give the number alone.

Consider the following illustrative entries.
CCCCC(=O)O[C@]1(C(=O)CO)[C@@H](C)C[C@H]2[C@@H]3CCC4=CC(=O)C=C[C@]4(C)[C@@]3(F)[C@@H](O)C[C@@]21C [Betamethasone 17-valerate, reference compound] :: 1
COC(=O)[C@@]1(OC(=O)C(Cl)Cl)[C@H](C)C[C@H]2[C@@H]3CCC4=CC(=O)C=C[C@]4(C)[C@@]3(F)[C@@H](O)C[C@@]21C :: 2
CCOC(=O)[C@@]1(OC(=O)CC)CC[C@H]2[C@@H]3CCC4=CC(=O)C=C[C@]4(C)[C@H]3[C@@H](O)C[C@@]21C [Compound P, reference compound] :: 0
CCOC(=O)[C@@]1(OC(=O)C(Cl)Cl)[C@H](C)C[C@H]2[C@@H]3CCC4=CC(=O)C=C[C@]4(C)[C@@]3(F)[C@@H](O)C[C@@]21C :: 1
CCOC(=O)O[C@]1(C(=O)OCCl)CC[C@H]2[C@@H]3CCC4=CC(=O)C=C[C@]4(C)[C@H]3[C@@H](O)C[C@@]21C [Loteprednol etabonate, reference compound] :: 0

System forearms of a human volunteer. Read-out Vasoconstriction activity. Item CCOC(=O)[C@@]1(OC(=O)C(Cl)Cl)CC[C@H]2[C@@H]3CCC4=CC(=O)C=C[C@]4(C)[C@H]3[C@@H](O)C[C@@]21C . Report value.
1

System forearms of a human volunteer. Read-out Vasoconstriction activity. Item CCOC(=O)[C@@]1(OC(=O)CCl)CC[C@H]2[C@@H]3CCC4=CC(=O)C=C[C@]4(C)[C@H]3[C@@H](O)C[C@@]21C . Report value.
0

System forearms of a human volunteer. Read-out Vasoconstriction activity. Item CCOC(=O)[C@@]1(OC(=O)C(C)Cl)CC[C@H]2[C@@H]3CCC4=CC(=O)C=C[C@]4(C)[C@H]3[C@@H](O)C[C@@]21C (some centres unmarked) . Report value.
0

====

In this section we review reported half-life values for a set of molecules.
Test: physchem
Type: physicochemical
Settings: buffer, pH 7.4
Please respond with the number in min and leave the unit unwritten.

Consider the following illustrative entries.
COC(=O)[C@@]1(OC(=O)C(Cl)Cl)CC[C@H]2[C@@H]3CCC4=CC(=O)C=C[C@]4(C)[C@H]3[C@@H](O)C[C@@]21C :: 202
C[C@]12C=CC(=O)C=C1CC[C@@H]1[C@@H]2[C@@H](O)C[C@@]2(C)[C@H]1CC[C@]2(OC(=O)C(Cl)Cl)C(=O)OCCl :: 13.9
CC(C)OC(=O)[C@@]1(OC(=O)C(Cl)Cl)CC[C@H]2[C@@H]3CCC4=CC(=O)C=C[C@]4(C)[C@H]3[C@@H](O)C[C@@]21C :: 658

Continue with the molecule presented below.
Supply recorded half-life for CCOC(=O)[C@@]1(OC(=O)C(Cl)Cl)CC[C@H]2[C@@H]3CCC4=CC(=O)C=C[C@]4(C)[C@H]3[C@@H](O)C[C@@]21C here.
305

====

In this section we review reported Vasoconstriction activity values for a set of molecules.
Test system: forearms of a human volunteer
Test: Further human vasoconstriction testing, Method 1; note: key: 0: normal skin; 1: slight pallor of indistinct outline; 2: pallor with at least two corners outlined; 3: even pallor with a clear outline of the application sites; 4: very intense pallor
Type: in vivo
Conditions: 24 Hours, 1 hour re-occlusion at 20-21 hours, 0.5 mM
Description: The mixtures, in 50 μL amounts, were applied to circular patches (8 mm diameter). After evaporation of ethanol, the patches were applied to the forearms of a human volunteer, and covered with a water impervious film for 3 hr. The intensity of vasoconstriction (scale 0-4) was judged at various time intervals after removal of the patches. […]
Write no unit; give the number alone.

Consider the following illustrative entries.
CCCCC(=O)O[C@]1(C(=O)CO)[C@@H](C)C[C@H]2[C@@H]3CCC4=CC(=O)C=C[C@]4(C)[C@@]3(F)[C@@H](O)C[C@@]21C [Betamethasone 17-valerate, reference compound] :: 2
CCOC(=O)[C@@]1(OC(=O)C(Cl)Cl)CC[C@H]2[C@@H]3CCC4=CC(=O)C=C[C@]4(C)[C@H]3[C@@H](O)C[C@@]21C :: 2
CCOC(=O)[C@@]1(OC(=O)CC)CC[C@H]2[C@@H]3CCC4=CC(=O)C=C[C@]4(C)[C@H]3[C@@H](O)C[C@@]21C [Compound P, reference compound] :: 2
CCOC(=O)[C@@]1(OC(=O)C(Cl)Cl)[C@H](C)C[C@H]2[C@@H]3CCC4=CC(=O)C=C[C@]4(C)[C@@]3(F)[C@@H](O)C[C@@]21C :: 2

System forearms of a human volunteer. Read-out Vasoconstriction activity. Item CCOC(=O)[C@@]1(OC(=O)CCl)CC[C@H]2[C@@H]3CCC4=CC(=O)C=C[C@]4(C)[C@H]3[C@@H](O)C[C@@]21C . Report value.
0

System forearms of a human volunteer. Read-out Vasoconstriction activity. Item COC(=O)[C@@]1(OC(=O)C(Cl)Cl)[C@H](C)C[C@H]2[C@@H]3CCC4=CC(=O)C=C[C@]4(C)[C@@]3(F)[C@@H](O)C[C@@]21C . Report value.
3

System forearms of a human volunteer. Read-out Vasoconstriction activity. Item CCOC(=O)[C@@]1(OC(=O)C(C)Cl)CC[C@H]2[C@@H]3CCC4=CC(=O)C=C[C@]4(C)[C@H]3[C@@H](O)C[C@@]21C (stereo partly shown) . Report value.
2

====

Assay: physchem
Assay type: physicochemical
Conditions: aqueous phosphate buffer, pH 4.5
reportedEndpoint: half-life

CCOC(=O)[C@@]1(OC(=O)C(Cl)Cl)CC[C@H]2[C@@H]3CCC4=CC(=O)C=C[C@]4(C)[C@H]3[C@@H](O)C[C@@]21C [Compound B] :: > 48 h
CC(C)OC(=O)[C@@]1(OC(=O)C(Cl)Cl)CC[C@H]2[C@@H]3CCC4=CC(=O)C=C[C@]4(C)[C@H]3[C@@H](O)C[C@@]21C [Compound C] :: > 48 h
C[C@]12C=CC(=O)C=C1CC[C@@H]1[C@@H]2[C@@H](O)C[C@@]2(C)[C@H]1CC[C@]2(OC(=O)C(Cl)Cl)C(=O)OCCl [Compound D] :: 14 h

Supply recorded half-life for COC(=O)[C@@]1(OC(=O)C(Cl)Cl)CC[C@H]2[C@@H]3CCC4=CC(=O)C=C[C@]4(C)[C@H]3[C@@H](O)C[C@@]21C [Compound A] here.
> 48 h

====

In this section we review reported half-life values for a set of compounds.
Assay: physchem
Type: physicochemical
Conditions: aqueous phosphate buffer, pH 8.08
Please respond with the number in min and leave the unit unwritten.

Consider the following illustrative entries.
COC(=O)[C@@]1(OC(=O)C(Cl)Cl)CC[C@H]2[C@@H]3CCC4=CC(=O)C=C[C@]4(C)[C@H]3[C@@H](O)C[C@@]21C :: 21
CCOC(=O)[C@@]1(OC(=O)C(Cl)Cl)CC[C@H]2[C@@H]3CCC4=CC(=O)C=C[C@]4(C)[C@H]3[C@@H](O)C[C@@]21C :: 52
CC(C)OC(=O)[C@@]1(OC(=O)C(Cl)Cl)CC[C@H]2[C@@H]3CCC4=CC(=O)C=C[C@]4(C)[C@H]3[C@@H](O)C[C@@]21C :: 125

Continue with the compound presented below.
Supply recorded half-life for C[C@]12C=CC(=O)C=C1CC[C@@H]1[C@@H]2[C@@H](O)C[C@@]2(C)[C@H]1CC[C@]2(OC(=O)C(Cl)Cl)C(=O)OCCl here.
2.9

====

Assay: in vitro
Assay type: in vitro ADME
Conditions: rat, lung cytosol
reportedEndpoint: remaining at 2 h, 10 µM (%)
Please respond with the number in % and leave the unit unwritten.

Consider the following illustrative entries.
COC(=O)[C@@]1(OC(=O)C(Cl)Cl)CC[C@H]2[C@@H]3CCC4=CC(=O)C=C[C@]4(C)[C@H]3[C@@H](O)C[C@@]21C :: 75.1
CC(C)OC(=O)[C@@]1(OC(=O)C(Cl)Cl)CC[C@H]2[C@@H]3CCC4=CC(=O)C=C[C@]4(C)[C@H]3[C@@H](O)C[C@@]21C :: 100
C[C@]12C=CC(=O)C=C1CC[C@@H]1[C@@H]2[C@@H](O)C[C@@]2(C)[C@H]1CC[C@]2(OC(=O)C(Cl)Cl)C(=O)OCCl :: 70.6

Continue with the compound presented below.
Supply recorded remaining at 2 h, 10 µM for CCOC(=O)[C@@]1(OC(=O)C(Cl)Cl)CC[C@H]2[C@@H]3CCC4=CC(=O)C=C[C@]4(C)[C@H]3[C@@H](O)C[C@@]21C here.
100
